Assay: Stability of narcotic conjugates in water (narcotic release, abuse resistance tests)
Assay type: physicochemical
Settings: numbers based upon narcotic release
A collection of molecules and their measured H2O (1 h, 90 C.)
I'd appreciate a reply containing only the number, no unit.

Sample answers from the record:
CCC(C)C(N)C(=O)OC1=CCC2C3Cc4ccc(OC)c5c4C2(CCN3C)C1O5 (stereo not shown): 46
COc1ccc2c3c1OC1C(OC(=O)C(N)CCC(=O)O)=CCC4C(C2)N(C)CCC314 (stereo not shown) [Glu-HC, 6-O-Glu-Hydrocodone]: 100
COc1ccc2c3c1O[C@H]1C(OC(=O)[C@@H]4CCCN4)=CC[C@H]4[C@@H](C2)N(C)CC[C@]314 [Pro-HC, 6-O-Pro-Hydrocodone]: 97

// moving on: another record for H2O (1 h, 90 C.)
Ask: Data request, read-out H2O (1 h, 90 C.), for COc1ccc2c3c1OC1C(OC(=O)C(C)(C)N)=CCC4C(C2)N(C)CCC314 (stereo not shown)
Result: 45
